Test system: MOLM-13 cells
Test method notes: Cell viability assay (CellTiter-Glo) in MOLM-13 cells, alone or with gilteritinib
Type: cell-based
Details: Homo sapiens, MOLM-13, 72 h, MOLM-13 cells, compound alone (without gilteritinib), three days, CellTiter-Glo; read-out: MOLM-13 IC50
Catalogue of molecules with associated IC50

Please review the entries below; each comes with its answer.
O=C1CCC(N2C(=O)c3ccc(NCCC[C@H]4C[C@@H](n5cc(-c6cnc7ccc(C8CCOCC8)cc7n6)c(C6CC6)n5)C4)cc3C2=O)C(=O)N1 (some centres unmarked) = < 10 nM
O=C1CCC(N2C(=O)c3ccc(NCCCCCCn4cc(-c5cnc6cc(Br)ccc6n5)cn4)cc3C2=O)C(=O)N1 (centres unmarked) = 100 to 1000 nM

So for O=C1CCC(N2Cc3cc(NCCCCC(=O)N4CCC(n5cc(-c6cnc7ccccc7n6)cn5)CC4)ccc3C2=O)C(=O)N1 (centres unmarked) , the logged IC50 turned out to be > 1000 nM

The recorded IC50 for entry O=C1CCC(N2C(=O)c3ccc(NCCCC4CC(n5cc(-c6cnc7ccccc7n6)cn5)C4)cc3C2=O)C(=O)N1 (centres unmarked) equals > 1000 nM

For record O=C1CCC(N2C(=O)c3ccc(NCCC[C@H]4C[C@H](n5cc(-c6cnc7cc(C8CCNCC8)ccc7n6)cn5)C4)cc3C2=O)C(=O)N1 (some centres unmarked) the listed IC50 is 10 to 100 nM

* * *

Tested on: MV4;11 cells
Test method notes: Cell viability assay (CellTiter-Glo) in MV4;11 cells, alone or with gilteritinib
Assay type: cell-based
Details: Homo sapiens, MV4-11, 72 h, MV4;11 cells, without gilteritinib, 3 days, CellTiter-Glo; read-out: MV4; 11 IC50
Let's look at some molecules and their measured IC50.

Below, 2 molecules whose answers are already recorded.
O=C1CCC(N2C(=O)c3ccc(NCCCCCC(=O)N4CCC(n5cccn5)CC4)cc3C2=O)C(=O)N1 (stereo not drawn) [GS-003] = > 10 µM
O=C1CCC(N2C(=O)c3ccc(NCCCCCC(=O)N4CCC(N5CCOCC5)CC4)cc3C2=O)C(=O)N1 (stereo not drawn) [GS-011] = > 10 µM

// IC50 value for O=C1CCC(N2C(=O)c3ccc(NCCCCCC(=O)N4CCC(N5CCC(c6cnc7ccccc7n6)C5)CC4)cc3C2=O)C(=O)N1 (stereo not drawn) [GS-015] : > 10 µM

Recorded result, O=C1CCC(N2C(=O)c3ccc(NCCCCCC(=O)N4CCC(c5cnc6cccc(Br)c6n5)CC4)cc3C2=O)C(=O)N1 (stereo not drawn) [GS-060] , IC50: < 0.001 µM

molecule Cc1ccccc1C(=O)N1CCN(C(=O)CCCCCNc2ccc3c(c2)C(=O)N(C2CCC(=O)NC2=O)C3=O)CC1 (stereo not drawn) [GS-016] , IC50 observed: > 10 µM

Form: molecule = O=C1CCC(N2C(=O)c3ccc(NCCCCCC(=O)N4CCC(N5CCCCC5)CC4)cc3C2=O)C(=O)N1 (stereo not drawn) [GS-012] ; IC50 = > 10 µM

* * *

Test system: MOLM-13 cells
Test method notes: Cell viability assay (CellTiter-Glo) in MOLM-13 cells, alone or with gilteritinib
Format: cell-based
Details: Homo sapiens, MOLM-13, 72 h, MOLM-13 cells, compound alone (without gilteritinib), three days, CellTiter-Glo; read-out: MOLM-13 IC50
pIC50: −log10 of the molar value.
Quantity measured: pIC50

Please review the entries below; each comes with its answer.
O=C1CCC(N2C(=O)c3ccc(NCCCC4CC(n5cc(-c6cnc7ccc(NC8COC8)cc7n6)cn5)C4)cc3C2=O)C(=O)N1 (stereo not shown) = 6.00 to 7.00
O=C1CCC(N2C(=O)c3ccc(NCCC[C@H]4C[C@H](n5cc(-c6cccc(C7CCOCC7)n6)cn5)C4)cc3C2=O)C(=O)N1 (stereo partly shown) = 6.00 to 7.00
O=C1CCC(N2C(=O)c3ccc(NC[C@H]4C[C@H](n5cc(-c6cnc7ccc(N8CCNCC8)cc7n6)cn5)C4)cc3C2=O)C(=O)N1 (stereo partly shown) = < 6.00
O=C1CCC(N2C(=O)c3ccc(NCCCCC(=O)N4CCC(c5cnc6ccccc6n5)CC4)cc3C2=O)C(=O)N1 (stereo not shown) = 6.00 to 7.00
O=C1CCC(N2Cc3cc(NCCCCC4(N5CCC(n6cc(-c7cnc8ccccc8n7)cn6)CC5)CC4)ccc3C2=O)C(=O)N1 (stereo not shown) = < 6.00
O=C1CCC(N2Cc3c(Nc4ccnc(Nc5cccc(N6CCN(c7ccccn7)CC6)c5)n4)cccc3C2=O)C(=O)N1 (stereo not shown) = 7.00 to 8.00

Kindly consider the entry below.
The molecule listed as Cc1nn([C@H]2C[C@H](CCCNc3ccc4c(c3)C(=O)N(C3CCC(=O)NC3=O)C4=O)C2)cc1-c1cnc2c(N3CCN(C)CC3)cccc2n1 (stereo partly shown) has a reported pIC50 of 6.00 to 7.00
